Where these numbers come from: patent US10173991B2

Entries and their measured IC50 follow.
molecular target: Endothelial lipase (EL) (Homo sapiens (Human), UniProt Q9Y5X9); test: Endothelial lipase (EL) enzymatic assay with fluorescent substrate A10070 in DMPG vesicles; assay type: biochemical
Sequence (Q9Y5X9 21-500): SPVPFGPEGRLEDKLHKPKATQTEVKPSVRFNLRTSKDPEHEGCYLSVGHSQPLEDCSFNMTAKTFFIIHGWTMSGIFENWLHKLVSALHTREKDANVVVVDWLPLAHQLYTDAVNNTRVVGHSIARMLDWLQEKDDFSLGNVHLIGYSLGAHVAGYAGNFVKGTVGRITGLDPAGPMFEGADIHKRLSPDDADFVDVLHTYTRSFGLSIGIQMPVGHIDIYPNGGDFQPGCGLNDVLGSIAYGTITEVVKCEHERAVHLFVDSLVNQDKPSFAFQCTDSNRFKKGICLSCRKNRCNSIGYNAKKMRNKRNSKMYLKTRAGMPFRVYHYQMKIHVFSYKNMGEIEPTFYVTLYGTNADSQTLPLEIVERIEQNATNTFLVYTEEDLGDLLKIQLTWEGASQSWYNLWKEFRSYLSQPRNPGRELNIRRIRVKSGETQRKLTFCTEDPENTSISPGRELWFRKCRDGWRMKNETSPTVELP
Report only the number, with the unit nM understood.

molecule | IC50 / nM
Cc1cc2nc(C(C(=O)NCC(=O)NC3CC3)S(=O)(=O)C(C)C)sc2cc1-c1ccc2c(c1)C(=O)NC2 (centres unmarked) [Example 258] | 19
CC(C)S(=O)(=O)C(C(=O)NCC(=O)NC1CC1)c1nc2cc(C(F)(F)F)c(-c3ccc(F)nc3)cc2s1 (centres unmarked) [Example 170] | 27
Cc1cc(-c2cc3sc(C(C(=O)NCC(=O)NC4CC4)S(=O)(=O)C(C)C)nc3cc2F)ccn1 (centres unmarked) [Example 245] | 12
COCCS(=O)(=O)C(C(=O)NCC(=O)NCCOCc1ccccc1)c1nc2ccc(-c3ccc(F)nc3)cc2s1 (centres unmarked) [Example 377] | 1
CC(C)n1cc(-c2cc3sc(C(C(=O)NCC(=O)NC4CC4)S(C)(=O)=O)nc3cc2F)ccc1=O (centres unmarked) [Example 195] | 23
O=C(CNC(=O)C(c1nc2ccc(-c3ccc4c(c3)CN(C3CC3)C4=O)cc2s1)S(=O)(=O)c1ccc(F)cc1)NC1CC1 (centres unmarked) [Example 597] | 7
Cc1cc(-c2cc3sc(C(C(=O)NCC(=O)NC4CC4)S(C)(=O)=O)nc3cc2OC(F)F)cnn1 (centres unmarked) [Example 604] | 27
COC(=O)Nc1ccc(-c2ccc3nc(C(C(=O)NCC(=O)NC4CC4)S(C)(=O)=O)sc3c2)c(C)c1 (centres unmarked) [Example 29] | 20

[Q] Report IC50, nothing else, for this molecule: CC(C)OCCNC(=O)CNC(=O)C(c1nc2cc(F)cc(-c3cnc(C4CC4)nc3)c2s1)S(=O)(=O)c1ccc(F)cc1 (centres unmarked) [Example 466]
[A] 157

[Q] Report IC50, nothing else, for this molecule: COCCS(=O)(=O)C(C(=O)NCC(=O)NC1CC1)c1nc2cc(F)c(-c3ccc(F)nc3)cc2s1 (centres unmarked) [Example 171]
[A] 27

[Q] Report IC50, nothing else, for this molecule: COCCS(=O)(=O)C(C(=O)NCC(=O)NC1CC1)c1nc2cc(C(F)(F)F)c(Br)cc2s1 (centres unmarked) [Example 165]
[A] 18

[Q] Report IC50, nothing else, for this molecule: CC(C)Oc1ccc(-c2cc3sc(C(C(=O)NCC(=O)NC4CC4)S(=O)(=O)C(C)C)nc3cc2F)cn1 (centres unmarked) [Example 235]
[A] 6

[Q] Report IC50, nothing else, for this molecule: COCCS(=O)(=O)C(C(=O)NCC(=O)NC1CC1)c1nc2cc(F)c(-c3ccc(NC(=O)CCc4ccccc4)cc3)cc2s1 (centres unmarked) [Example 577]
[A] 1

[Q] Report IC50, nothing else, for this molecule: CCOc1ncccc1-c1ccc2sc(C(C(=O)NCC(=O)NC3CC3)S(=O)(=O)CCOC)nc2c1 (centres unmarked) [Example 87]
[A] 346

* * *

target: Endothelial lipase (EL) (Homo sapiens (Human), UniProt Q9Y5X9); test: Endothelial lipase (EL) enzymatic assay with fluorescent substrate A10070 in DMPG vesicles; type: biochemical
Entries and their measured pIC50 follow.
Would you please state pIC50, meaning minus log10 of the concentration in mol/L, as a bare number?

Example entries and their recorded answers appear below.
compound | assay-system | pIC50
CC(C)S(=O)(=O)C(C(=O)NCC(=O)NC1CC1)c1nc2cc(-c3cccc4c3cnn4C)c(F)cc2s1 (centres unmarked) | Endothelial lipase (EL) (Homo sapiens (Human), UniProt Q9Y5X9) | 8.52
CC(C)S(=O)(=O)C(C(=O)NCC(=O)NC1CC1)c1nc2cc(-c3ccc(F)nc3)c(F)cc2s1 (centres unmarked) | Endothelial lipase (EL) (Homo sapiens (Human), UniProt Q9Y5X9) | 7.89
Cc1cc(-c2cc3nc(C(C(=O)NCC(=O)NC4CC4)S(=O)(=O)C(C)C)sc3cc2F)ccn1 (centres unmarked) | Endothelial lipase (EL) (Homo sapiens (Human), UniProt Q9Y5X9) | 8.15
COCCS(=O)(=O)C(C(=O)NCC(=O)NC1CC1)c1nc2cc(F)c(-c3ccc(-c4nn[nH]n4)cc3)cc2s1 (centres unmarked) | Endothelial lipase (EL) (Homo sapiens (Human), UniProt Q9Y5X9) | 8.22

[Q] Report pIC50, nothing else, for this compound: O=C(CNC(=O)C(c1nc2ccc(-c3ccnc(O)c3)cc2s1)S(=O)(=O)c1ccc(F)cc1)NC1CC1 (centres unmarked)
[A] 7.57

[Q] Report pIC50, nothing else, for this compound: CC(C)S(=O)(=O)C(C(=O)NCC(=O)NC1CC1)c1nc2cc(F)c(-c3ccc4cnn(C)c4c3)cc2s1 (centres unmarked)
[A] 8.30

[Q] Report pIC50, nothing else, for this compound: Cn1ccc(-c2cc(F)c3nc(C(C(=O)NCC(=O)NC4CC4)S(=O)(=O)c4ccc(F)cc4)sc3c2)cc1=O (centres unmarked)
[A] 7.11

[Q] Report pIC50, nothing else, for this compound: CS(=O)(=O)C(C(=O)NCC(=O)NC1CC1)c1nc2ccc(-c3ccc(-n4cccn4)cc3)cc2s1 (centres unmarked)
[A] 8.70

[Q] Report pIC50, nothing else, for this compound: CC(C)S(=O)(=O)C(C(=O)NCC(=O)NC1CC1)c1nc2cc(F)c(-c3ccc4c(c3)CNC4=O)cc2s1 (centres unmarked)
[A] 7.80

[Q] Report pIC50, nothing else, for this compound: COCCS(=O)(=O)C(C(=O)NCC(=O)NC1CC1)c1nc2cc(-c3ccnc(F)c3)ccc2s1 (centres unmarked)
[A] 7.49

[Q] Report pIC50, nothing else, for this compound: CC(=O)NCc1ccc(-c2cc3sc(C(C(=O)NCC(=O)NC4CC4)S(=O)(=O)c4ccc(F)c(F)c4)nc3cc2F)cc1 (centres unmarked)
[A] 8.00

[Q] Report pIC50, nothing else, for this compound: COC(=O)Nc1cccc(-c2cc(F)c3nc(C(C(=O)NCC(=O)NC4CC4)S(=O)(=O)N(C)C)sc3c2)c1 (centres unmarked)
[A] 7.68

[Q] Report pIC50, nothing else, for this compound: COCCS(=O)(=O)C(C(=O)NCC(=O)NC1CC1)c1nc2c(F)cc(-c3cncnc3)cc2s1 (centres unmarked)
[A] 7.21

[Q] Report pIC50, nothing else, for this compound: COCCS(=O)(=O)C(C(=O)NCC(=O)NC1CC1)c1nc2cc(-c3cnc(C4CC4)nc3)c(F)cc2s1 (centres unmarked)
[A] 8.00

* * *

Entries and their measured pIC50 follow.
target: Endothelial lipase (EL) (Homo sapiens (Human)); test: Endothelial lipase (EL) enzymatic assay with fluorescent substrate A10070 in DMPG vesicles; assay type: biochemical
Would you please state pIC50, meaning minus log10 of the concentration in mol/L, as a bare number?

compound | value
CN(C)c1ccc(-c2ccc3nc(C(C(=O)NCC(=O)NC4CC4)S(=O)(=O)Cc4ccc(F)cc4)sc3c2)cn1 (centres unmarked) | 7.07
COCCS(=O)(=O)C(C(=O)NCC(=O)NC1CC1)c1nc2cc(C)c(-c3ccc4[nH]c(=O)ccc4c3)cc2s1 (centres unmarked) | 8.70
O=C(CNC(=O)C(c1nc2ccc(-c3ccc(F)nc3)cc2s1)S(=O)(=O)Cc1ccc(OC(F)(F)F)cc1)NC1CC1 (centres unmarked) | 7.70
Cn1ccc(-c2ccc3nc(C(C(=O)NCC(=O)NC4CC4)S(=O)(=O)N4CCOCC4)sc3c2)cc1=O (centres unmarked) | 7.24

With those in mind, consider the next compound.
[Q] Report pIC50, nothing else, for this compound: COC(=O)Nc1cccc(-c2cc3sc(C(C(=O)NCC(=O)NC4CC4)S(C)(=O)=O)nc3cc2F)c1 (centres unmarked)
[A] 8.40

* * *

biological target: Endothelial lipase (EL) (Homo sapiens (Human), UniProt Q9Y5X9); test: Endothelial lipase (EL) enzymatic assay with fluorescent substrate A10070 in DMPG vesicles; format: biochemical
quantity-kind: log10 of IC50 (log10 of the value in nM)
Friendly reminder: values = log10 of IC50, unit nM.

Example entries and their recorded answers appear below.
compound | log10 of IC50
CN(C)S(=O)(=O)C(C(=O)NCC(=O)NC1CC1)c1nc2c(F)cc(-c3ccc(-n4ccccc4=O)cc3)cc2s1 (stereo not shown) | 0.48
COC(=O)Nc1ccc(-c2cc3sc(C(C(=O)NCC(=O)NC4CC4)S(=O)(=O)CCN4CCOCC4)nc3cc2F)cc1 (stereo not shown) | 0.48
COCCS(=O)(=O)C(C(=O)NCC(=O)NC1CC1)c1nc2cc(-c3ccc(F)cc3)ccc2s1 (stereo not shown) | 1.69
O=C(CNC(=O)C(c1nc2c(F)cc(-c3ccc4[nH]c(=O)ccc4c3)cc2s1)S(=O)(=O)c1ccc(F)cc1)NC1CC1 (stereo not shown) | 0.85
COCCS(=O)(=O)C(C(=O)NCC(=O)NC1CC1)c1nc2ccc(-c3cccnc3F)cc2s1 (stereo not shown) | 0.85

[Q] Report log10 of IC50, nothing else, for this compound: COCCS(=O)(=O)C(C(=O)NCC(=O)NC1CC1)c1nc2cc(-c3ccc(Cl)cn3)ccc2s1 (stereo not shown)
[A] 1.85

[Q] Report log10 of IC50, nothing else, for this compound: CS(=O)(=O)C(C(=O)NCC(=O)NC1CC1)c1nc2cc(F)c(-c3ccc4c(c3)NC(=O)C4)cc2s1 (stereo not shown)
[A] 0.78
